Reference source for all entries: patent US20120172384A1

Each entry below carries its reported IC50.
- assay-system: ZAP-70 (Homo sapiens, UniProt P43403)
- Construct: endogenous in cells
- Sequence (P43403 1-619): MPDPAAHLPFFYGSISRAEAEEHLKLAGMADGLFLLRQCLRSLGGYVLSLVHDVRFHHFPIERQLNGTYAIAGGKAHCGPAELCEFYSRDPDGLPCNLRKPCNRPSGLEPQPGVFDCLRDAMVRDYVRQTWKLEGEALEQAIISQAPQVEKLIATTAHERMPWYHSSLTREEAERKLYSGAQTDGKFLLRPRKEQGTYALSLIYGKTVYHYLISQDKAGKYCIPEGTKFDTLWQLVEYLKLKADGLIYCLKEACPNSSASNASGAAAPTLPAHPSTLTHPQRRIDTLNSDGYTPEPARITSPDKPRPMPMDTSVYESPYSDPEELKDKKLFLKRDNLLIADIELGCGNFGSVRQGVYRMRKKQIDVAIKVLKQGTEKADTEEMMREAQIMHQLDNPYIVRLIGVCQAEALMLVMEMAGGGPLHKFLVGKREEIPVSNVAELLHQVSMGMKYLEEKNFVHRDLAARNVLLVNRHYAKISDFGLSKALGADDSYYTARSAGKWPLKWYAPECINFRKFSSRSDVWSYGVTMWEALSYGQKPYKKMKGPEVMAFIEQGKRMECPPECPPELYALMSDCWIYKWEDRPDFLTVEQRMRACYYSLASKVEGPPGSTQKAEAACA
- assay-info: ZAP-70 kinobeads assay
- Format: binding
- condition-description: cell lysate, dot blot with ZAP-70 antibody

{"compound": "COc1ccc(Nc2nc(Nc3ccn(C)n3)ncc2F)c(NS(C)(=O)=O)c1", "assay-system": "ZAP-70 (Homo sapiens, UniProt P43403)", "measured-result": "100 to 1000 nM"}

Look up IC50 for this compound: "CCn1nc(C)cc1Nc1ncc(Cl)c(Nc2ccc(OC)cc2NS(C)(=O)=O)n1" ≤ 100 nM

I would be grateful if you could share the reported IC50 for "Cn1cc(Nc2ncc(Cl)c(Nc3ccccc3NS(C)(=O)=O)n2)cn1" . 100 to 1000 nM

Report IC50 for "CS(=O)(=O)Nc1ccccc1Nc1nc(Nc2cn[nH]c2)ncc1F" please. 100 to 1000 nM

Recorded IC50 of "COc1ccc(Nc2nc(Nc3ccnn3C(C)C)ncc2Cl)c(NS(C)(=O)=O)c1" , please. 100 to 1000 nM

What value of IC50 has been reported for the following compound? "CCCn1nccc1Nc1ncc(Cl)c(Nc2ccc(OC)cc2NS(C)(=O)=O)n1" 100 to 1000 nM

Reported IC50, compound CCC(C)n1nc(C)cc1Nc1ncc(Cl)c(Nc2ccc(OC)cc2NS(C)(=O)=O)n1 (stereo not drawn) : ____ 100 to 1000 nM

Can you look up the measured IC50 of "CCn1ncc(Nc2ncc(Cl)c(Nc3ccc(OC)cc3NS(C)(=O)=O)n2)c1C" for me? ≤ 100 nM

Consider the compound shown here: "CCn1nccc1Nc1ncc(Cl)c(Nc2ccc(OC)cc2NS(C)(=O)=O)n1" What is its recorded IC50? 100 to 1000 nM

Give its IC50 value. Item: "CCn1ncc(C)c1Nc1ncc(Cl)c(Nc2ccc(OC)cc2NS(C)(=O)=O)n1" 1000 to 10000 nM

Quick check: IC50 of "CC(C)n1ccc(Nc2ncc(Cl)c(Nc3ccccc3NS(C)(=O)=O)n2)n1" ? 100 to 1000 nM

----------
- assay-system: JAK3 (Homo sapiens, UniProt P52333)
- Construct: endogenous in cells
- Sequence (P52333 1-1124): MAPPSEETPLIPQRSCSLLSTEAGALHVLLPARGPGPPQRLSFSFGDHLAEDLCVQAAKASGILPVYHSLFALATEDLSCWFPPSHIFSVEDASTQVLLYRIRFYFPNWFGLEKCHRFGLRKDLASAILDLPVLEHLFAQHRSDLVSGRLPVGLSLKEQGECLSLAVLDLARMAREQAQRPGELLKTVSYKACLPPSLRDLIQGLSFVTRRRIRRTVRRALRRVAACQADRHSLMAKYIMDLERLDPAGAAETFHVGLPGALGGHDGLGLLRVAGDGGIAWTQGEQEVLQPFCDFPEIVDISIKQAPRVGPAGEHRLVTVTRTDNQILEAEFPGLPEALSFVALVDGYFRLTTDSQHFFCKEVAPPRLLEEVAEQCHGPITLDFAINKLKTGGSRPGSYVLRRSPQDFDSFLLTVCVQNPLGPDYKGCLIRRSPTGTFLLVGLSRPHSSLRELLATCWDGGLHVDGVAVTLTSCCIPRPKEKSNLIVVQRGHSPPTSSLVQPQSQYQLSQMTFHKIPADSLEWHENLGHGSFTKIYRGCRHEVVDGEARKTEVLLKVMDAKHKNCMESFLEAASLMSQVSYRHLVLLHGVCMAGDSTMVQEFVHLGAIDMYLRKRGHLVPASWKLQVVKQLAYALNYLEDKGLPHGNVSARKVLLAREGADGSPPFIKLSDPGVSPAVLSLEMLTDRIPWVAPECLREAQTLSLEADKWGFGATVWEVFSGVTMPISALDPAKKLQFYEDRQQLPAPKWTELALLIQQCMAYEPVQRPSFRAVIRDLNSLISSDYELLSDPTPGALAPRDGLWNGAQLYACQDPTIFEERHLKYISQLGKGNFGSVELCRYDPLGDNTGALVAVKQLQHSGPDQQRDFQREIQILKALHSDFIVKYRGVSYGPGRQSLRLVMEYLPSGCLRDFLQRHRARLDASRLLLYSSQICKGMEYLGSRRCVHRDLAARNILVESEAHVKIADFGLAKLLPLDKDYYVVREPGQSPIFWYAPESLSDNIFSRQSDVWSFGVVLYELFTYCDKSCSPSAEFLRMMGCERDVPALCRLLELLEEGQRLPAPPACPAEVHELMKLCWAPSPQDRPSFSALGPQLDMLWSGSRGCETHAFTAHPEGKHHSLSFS
- assay-info: JAK3 kinobeads assay
- condition-description: cell lysate, dot blot with JAK3 specific antibody
- Method: The compounds of the present invention as described in the previous examples were tested in the ZAP-70 kinobeads assay as described (EP-A 1862802 and WO-A 2007/137867). […] Bound proteins are then eluted and the presence ZAP-70 is detected and quantified using a specific antibody in a dot blot procedure and the Odyssey infrared detection system. […]
reported-metric: IC50

Sample answers from the record:
{"test-smiles": "COc1nn(CC(F)(F)F)cc1Nc1ncc(F)c(Nc2ccccc2NS(C)(=O)=O)n1", "IC50": "1000 to 10000 nM"}
{"test-smiles": "Cc1nn(C)cc1Nc1ncc(Cl)c(Nc2ccccc2NS(C)(=O)=O)n1", "IC50": "≤ 100 nM"}
{"test-smiles": "COCCn1cc(Nc2ncc(Cl)c(Nc3cccc(F)c3NS(C)(=O)=O)n2)cn1", "IC50": "≤ 100 nM"}
{"test-smiles": "Cn1ccc(Nc2ncc(Cl)c(Nc3ccccc3NS(C)(=O)=O)n2)n1", "IC50": "≤ 100 nM"}
{"test-smiles": "CCn1cc(Nc2ncc(Cl)c(Nc3ccc(OC)cc3NS(C)(=O)=O)n2)c(C)n1", "IC50": "≤ 100 nM"}
{"test-smiles": "CS(=O)(=O)Nc1ccccc1Nc1nc(Nc2cnoc2)ncc1Cl", "IC50": "100 to 1000 nM"}
{"test-smiles": "COc1ccc(Nc2nc(Nc3ccon3)ncc2F)c(NS(C)(=O)=O)c1", "IC50": "100 to 1000 nM"}
{"test-smiles": "COc1ccc(Nc2nc(Nc3ccn(C(C)C)n3)ncc2F)c(NS(C)(=O)=O)c1", "IC50": "100 to 1000 nM"}

# input for lookup
Quick one: IC50 of "CCS(=O)(=O)Nc1ccccc1Nc1nc(Nc2ccn(C)n2)ncc1Cl" ? 100 to 1000 nM

----------
- assay-system: JAK3 (Homo sapiens)
- Construct: endogenous in cells
- assay-info: JAK3 kinobeads assay
- condition-description: cell lysate, dot blot with JAK3 specific antibody
pIC50: −log10 of the molar value.
reported-metric: pIC50

{"molecule": "Cn1nc(Nc2ncc(Cl)c(Nc3ccccc3NS(C)(=O)=O)n2)cc1C(=O)O [Example 92]", "pIC50": "≥ 7.00"}

Query: pIC50; subject: COc1ccc(Nc2nc(Nc3ccnn3C)ncc2Cl)c(NS(C)(=O)=O)c1 [Example 5] 6.00 to 7.00

Recorded pIC50 for CCn1cc(Nc2ncc(F)c(Nc3ccccc3NS(C)(=O)=O)n2)c(C)n1 [Example 37] , please? 6.00 to 7.00

Entry COc1ccc(Nc2nc(Nc3c[nH]nc3C)ncc2Cl)c(NS(C)(=O)=O)c1 [Example 2] has what pIC50? ≥ 7.00

// returns reported pIC50 for input Cc1nn(CC(F)F)cc1Nc1ncc(F)c(Nc2ccccc2NS(C)(=O)=O)n1 [Example 72] 6.00 to 7.00

pIC50 for Cn1cc(Nc2ncc(F)c(Nc3cccc(F)c3NS(C)(=O)=O)n2)cn1 [Example 99] ? ≥ 7.00

What measured pIC50 goes with Cn1cc(Nc2ncc(F)c(Nc3ccccc3NS(C)(=O)=O)n2)cn1 [Example 22] ? ≥ 7.00
